assayed_system: CDK2 (human)
Define the label as Fulfilled when IC50 is strictly less than 20 nM and as Not fulfilled in all remaining cases.

compound_structure: CCCCCNc1nc(N[C@H]2CC[C@H](N)CC2)nc2c1ncn2C1CCCC1
assigned_label: Not fulfilled

compound_structure: CCCCNc1nc(N[C@H]2CC[C@H](N)CC2)nc2c1ncn2C1CCCC1
assigned_label: Not fulfilled

compound_structure: N[C@H]1CC[C@H](Nc2nc(NCCCO)c3ncn(C4CCCC4)c3n2)CC1
assigned_label: Fulfilled

compound_structure: N[C@H]1CC[C@H](Nc2nc(NCCCCc3ccccc3)c3ncn(C4CCCC4)c3n2)CC1
assigned_label: Not fulfilled

compound_structure: CC(C)n1cnc2c(NCCCC(=O)c3ncc[nH]3)nc(N[C@H]3CC[C@H](N)CC3)nc21
assigned_label: Not fulfilled
